target: Neu5Ac(a2-3)Gal(b1-4)GlcNAc(b1-2)[Neu5Ac(a2-3)Gal(b1-4)GlcNAc(b1-6)]Man(a1-6)[Neu5Ac(a2-3)Gal(b1-4)GlcNAc(b1-2)Man(a1-3)]Man(b1-4)GlcNAc(b1-4)GlcNAc; assay: glycan array binding signal (z-score within array); higher = stronger binding; details: glycan notation: IUPAC condensed, linker removed
The entries come from a sample that favours the strongest signals as a whole.
Please enter yes (1) where glycan array binding signal (z-score) is greater than or equal to -0.1, and no (0) where it is lower.

Take a look at these entries with their results.
- Binder: "Cohesin-marm-DC-ASGPR-CRD (protein) LDITSHHHHHHDDLDAVRIKVDTVNAKPGDTVRIPVRFSGIPSKGIANCDFVYSYDPNVLEIIEIEPGDIIVDPNPDKSFDTAVYPDRKIIVFLFAEDSGTGAYAITKDGVFATIVAKVKEGAPNGLSVIKFVEVGGFANNDLVEQKTQFFDGGVNVGDTTEPATPTTPVTTPTTTDDLDAASCPINWVEHQGSCYWFSRSGKTWPEAERYCQLENTHLVVINSREEQNFVQAHLGSAYTWMGLSDPEGVWKWVDGTDYSSGFQNWKPGQPDDWQGHGLGGGEDCAHFHPDGRWNDDVCQRSYHWVCEAGLTQASQDSH"
  Category: "no (0)"
- Binder: "EEA (Euonymus europaeus) (protein) MASTIIATGPTYRVYCRAAPNYNMIVGKGVAFLAPIDETNELQYWYKDDTYSYIKDEAGLPAFSLVNKATGLTLKHSNHHPVPVKLVTYNPNVVDESVLWSQADDRGDGYSAIRSLTNPASHLEAAPLNDWSYNGAIIMGGVWIDAYNQQWKIEPHTG"
  Category: "no (0)"
- Binder: "ArathEULS3 (Arabidopsis thaliana), Q945P1 (protein) MEHHHQHHRHHQRDDGEDDRQSFGVPPPHVDAPPQPHGLYQSQPHFDPYAPTPQAPAPYRSETQFEPHAPPPYRSEPYFETPAPPPSFGHVSHVGHQSPNESYPPEHHRYGGYQQPSNSLLESHGDHSGVTHVAHHSSNQPQSSSGVYHKPDENRLPDNLAGLAGRATVKVYSKAEPNYNLTIRDGKVILAPADPSDEAQHWYKDEKYSTKVKDADGHPCFALVNKATGEAMKHSVGATHPVHLIRYVPDKLDESVLWTESKDFGDGYRTIRMVNNTRLNVDAYHGDSKSGGVRDGTTIVLWDWNKGDNQLWKIFPFILEQKLISEEDLNSAVDHHHHHH"
  Category: "yes (1)"
- Binder: "AT5G24760(45) (Arabidopsis thaliana), Q8LEB2 (protein) MSASSSSFEQPQVITCNAAVAWRAGEPLVMEEVEVSPPQPLEIRIKVVCTSLCRSDLSAWESQSLLPRIFGHEAAGIVESIGEGVTEFEKGDHVLAVFTGECGSCRHCISGKSNMCQVLGMERKGLMHSDQKTRFSIKGKPVYHYCAVSSFSEYTVVHSGCAVKVDPLAPLHKICLLSCGVAAGLGAAWNVADVQKGSSVVIFGLGTVGLSVAQGAKLRGAAQILGVDINPAKAEQAKTFGVTDFINSNDLSEPIPQVIKRMTGGGADFSFECVGDTGIATTALQSCSDGWGMTVTLGVPKAKPEVSAHYGLFLSGKSLKGTLFGGWKPKSDLPSLIDKYMNKEIMIDEFITHNLSFDEINKAFVLMREGKCLRCVLHMPK"
  Category: "no (0)"
- Binder: "DCIR1 (Mus musculus), Q9QZ15 (protein) MASEITYAEVKFKNESNSLHTYSESPAAPREKPIRDLRKPGSPSLLLTSLMLLLLLLAITFLVAFIIYFQKYSQLLEEKKAAKNIMHNELNCTKSVSPMEDKVWSCCPKDWRLFGSHCYLVPTVSSSASWNKSEENCSRMGAHLVVIQSQEEQDFITGILDTHAAYFIGLWDTGHRQWQWVDQTPYEESITFWHNGEPSSGNEKCATIIYRWKTGWGWNDISCSLKQKSVCQMKKINL"
  Category: "yes (1)"

Shift focus to the following entry.
Is glycan array binding signal (z-score) at least -0.1? Consider RVL (Remusatia vivipara), B5LYJ9 (protein) MAKLLLFLLPAILGLLVPRSAVALGTNYLLSGQTLDTEGHLKNGDFDLVMQDDCNLVLYNGNWQSNTANNGRDCKLTLTDYGELVIKNGDGSTVWKSGAQSVKGNYAAVVHPDGRLVVLGPSVFKIDPWVRGLNSLRFRNIPFTNNLLFSGQVLYGDGRLTAKNHQLVMQGDCNLVLYGGKYGWQSNTHGNGEHCFLRLNHKGELIIKDDDFKTIWSSRSSSKQGEYVLILQDDGFGVIYGPAIFETSSKRSIAAS yes (1)

Recorded values, source the supplement of paper PMC8728848.
